Test system: NCI-H1944
Assay overview: normalised cell viability (NPI; 0 = phenylarsine oxide control, 1 = DMSO control) (fraction of DMSO control); higher = more viable cells (less compound toxicity)
Measurement parameters: glucocorticoid arm: hydrocortisone 2.75 uM pre-treated 2 days and continued; compound 5 µM; 6 days
Where a name gives a salt, the structure may show the parent alone. Over roughly 1,900 compounds, “normalised cell viability (NPI; 0 = phenylarsine oxide control, 1 = DMSO control)” has its median near 1; the lowest 2% begin near 0.039. The list comes from a sample in which the lowest values are over-represented; it also holds close analogues and randomly drawn compounds.
Exercise: state measured normalised cell viability for each of the compounds provided.
Give bare numbers.

Record excerpt, results attached:
INSERT INTO assay_data (compound, measured_parameter, observed) VALUES
  ('CN(C)C(=O)C(CCN1CCC(O)(c2ccc(Cl)cc2)CC1)(c1ccccc1)c1ccccc1 [Loperamide hydrochloride]', 'normalised cell viability', 0.87),
  ('CC1(C)CCC(NC(=O)[C@@H](N)CCC(=O)O)CC1', 'normalised cell viability', 0.982),
  ('Cc1ccc(-n2nc(C(C)(C)C)cc2NC(=O)Nc2ccc(OCCN3CCOCC3)c3ccccc23)cc1', 'normalised cell viability', 0.816),
  ('CN1CCN(S(=O)(=O)c2ccc(-c3cnc(N)c(C(=O)Nc4cccnc4)n3)cc2)CC1', 'normalised cell viability', 1.1),
  ('COc1cc2nccc(Oc3ccc(NC(=O)Nc4ccc(F)cc4F)c(F)c3)c2cc1OC', 'normalised cell viability', 1.04);

Below are some compounds; for each one, tell me its normalised cell viability.
1. O=C(CCCN1CCC(O)(c2ccc(Cl)cc2)CC1)c1ccc(F)cc1
2. CCOC(=O)C1=CN(Cc2ccccc2)C=C(C(=O)OCC)C1c1ccccc1
3. CC(C)C[C@H](NC(=O)CNC(=O)c1cc(Cl)ccc1Cl)B(O)O
4. COc1cc2c(cc1OC)-c1c/c(=N\c3c(C)cc(C)cc3C)n(C)c(=O)n1CC2 [Trequinsin hydrochloride]
5. O=C1c2c(O)ccc(O)c2C(=O)c2c(NCCNCCO)ccc(NCCNCCO)c21 [Mitoxantrone dihydrochloride]
6. CN(C)CCCCSC(=N)N
7. CCCS(=O)(=O)Nc1ccc(F)c(C(=O)c2c[nH]c3ncc(-c4ccc(Cl)cc4)cc23)c1F
8. O=C(OCCN1CCOCC1)C1(c2ccccc2)CCCCC1

Result:
[1.01, 1.01, 1.04, 1.03, 0.155, 1.02, 1.01, 0.891]

// batch mode: one normalised cell viability value per listed entry
1. COc1cc(OC)c(/C=C/S(=O)(=O)Cc2ccc(OC)c(NCC(=O)O)c2)c(OC)c1
2. C/C=C1\NC(=O)[C@H]2CSSCC/C=C/[C@H](CC(=O)N[C@H](C(C)C)C(=O)N2)OC(=O)[C@H](C(C)C)NC1=O [Depsipeptide]
3. CNC(=O)[C@H]1O[C@@H](n2cnc3c(N)ncnc32)[C@H](O)[C@@H]1O
4. CC(C)C[C@H](NC(=O)CNC(=O)c1cc(Cl)ccc1Cl)B1OC(=O)CC(CC(=O)O)(C(=O)O)O1 (stereo partly drawn)

Result:
[0.572, 1.03, 0.961, 1.04]

---

Test system: NCI-H1944;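 further: CTB read-out in 384-well plates, triplicate wells, NPI normalised per plate against 1 µM phenylarsine oxide (0) and 0.1% DMSO (1) controls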
Assay overview: normalised cell viability (NPI; 0 = phenylarsine oxide control, 1 = DMSO control) (fraction of DMSO control); NCI-H1944 is a non-small cell lung cancer line; higher = more viable cells (less compound toxicity)
Measurement parameters: glucocorticoid arm: hydrocortisone 2.75 uM pre-treated 2 days and continued; compound 5 µM; 6 days
Structures can show the parent of a compound that is named as a salt. Whole data set: some 1,900 compounds, median “normalised cell viability (NPI; 0 = phenylarsine oxide control, 1 = DMSO control)” near 1, cut for the lowest 2% near 0.039. This excerpt belongs to a sample that is enriched for the lowest values.
Measured parameter: normalised cell viability

Below are worked cases with known answers.
INSERT INTO results (molecule, target_of_assay, observed) VALUES
  ('OC(CCN1CCCCC1)(c1ccccc1)C1CCCCC1 (racemic) [DL-Trihexyphenidyl hydrochloride]', 'NCI-H1944', 1.02),
  ('CCC[C@H](NC(=O)/C(C#N)=C/c1cccc(Br)n1)c1ccccc1', 'NCI-H1944', 1.09),
  ('CC(C)(C(=O)O)c1ccc(C(O)CCCN2CCC(C(O)(c3ccccc3)c3ccccc3)CC2)cc1 (stereo not drawn) [Fexofenadine hydrochloride]', 'NCI-H1944', 0.99),
  ('Cc1cc(Cn2cnc3c2C[C@@H](C(=O)O)N(C(=O)C(c2ccccc2)c2ccccc2)C3)ccc1N', 'NCI-H1944', 1.01),
  ('C=C1C(=O)O[C@@H](CCC)[C@@H]1C(=O)O [Butyrolactone 3]', 'NCI-H1944', 1.02),
  ('CC(C)(C(=O)O)c1ccc(C(O)CCCN2CCC(C(O)(c3ccccc3)c3ccccc3)CC2)cc1 (stereo not drawn) [Fexofenadine HCl]', 'NCI-H1944', 1.05),
  ('CCCCc1nc2cc(/C=C/C(=O)NO)ccc2n1CCN(CC)CC [Pracinostat (SB939)]', 'NCI-H1944', 0.0658);

Consider the additional molecule presented here.
Problem: Which normalised cell viability value belongs to N=C(N)NCCC[C@H](N)C(=O)O [L-Arginine] ?
Result: 1
